- MEASUREMENT TARGET: monkey IGF-1R (on COS-7 cells) (African green monkey); further: test concentration or dose not given here
- TEST NAME: cell-based or functional assay
MEASURED QUANTITY: % internalisation (%)
Answer format: numeric, % implied, no suffix.

- BINDER: "m219D6 (antibody, V domains shown, murine mAb, hybridoma CNCM I-4736, group G2) VH: QVQLQQSGPELVKPGDSVKMSCKASGYSFTSYFIHWVKQRPGQGLEWIGWIWPGDGSTKYNEKFKGKTTLTTDKSSSTAYMFLNSLTSEDSAVYFCASPMITPNYAMDYWGQGASVTVSS VL: DIQMTQTTSSLSASLGDRVTISCRASQDISKYLNWYQQQPDGTVKLLIYYTSRLHSGVPSRFSGRGSGTDYSLTISNLEQEDIATYFCQQGSTLPYTFGGGTKLEIK"
  QUANTITATIVE READOUT: 71
- BINDER: "c219D6 (antibody, human IgG1, kappa, V domains shown, group G2; also called chimeric 219D6) VH: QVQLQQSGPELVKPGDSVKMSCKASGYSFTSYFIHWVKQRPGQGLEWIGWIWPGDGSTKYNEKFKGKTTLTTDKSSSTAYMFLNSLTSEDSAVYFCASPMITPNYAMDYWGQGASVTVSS VL: DIQMTQTTSSLSASLGDRVTISCRASQDISKYLNWYQQQPDGTVKLLIYYTSRLHSGVPSRFSGRGSGTDYSLTISNLEQEDIATYFCQQGSTLPYTFGGGTKLEIKR"
  QUANTITATIVE READOUT: 74
- BINDER: "m213B10 (antibody, V domains shown, murine mAb, hybridoma CNCM I-4774, group G2) VH: QVQLQQSGSELVKPGASVKMSCKASGYTFTSYYIHWVKQRPGQGLEWIGWIWPGDGSTKYNERFKGKTTLTADKSSSTAYMFLSSLTSEDSAVYFCASPMITPNYAMDYWGQGASVTVSS VL: DIQMTQTTSSLSASLGDRVTISCRASQDISKYLNWYQQQPDGTIKLLIYYTSRLHSGVPSRFSGRGSGTDYSLTITNLEQEDIATYFCQQGSALPYTFGGGTKLEIK"
  QUANTITATIVE READOUT: 74

Please look at the following binder next.
Task item: Report % internalisation for c208F2 (antibody, human IgG1, kappa, V domains shown, group G2; also called chimeric 208F2) VH: QVQLQQSGPELVKPGASVKMSCKASGYTFTSYYIYWVKQRPGQGLEWLGWIWPGDGSTKYNEKFKDKTTLTADKSSNTAYMFLSSLTSEDSAVYFCASPMITPNYAMDYWGQGASVTVSS VL: DIQMTQTTSSLSASLGDRVTISCRASQDISKYLNWYQQQPDGTIKLLIYYTSRLHSGVPSRFSGRGSGTDYSLTISNVEQEDIATYFCQQGSTLPYTFGGGTKLEIKR please.
Reply: 67
